- Test system: MDR1-MDCK cells
- run-description: MDR1-MDCK effective efflux assay (Transwell, 10 μM, 1 hour), MDR1-MDCK cells
- Assay type: in vitro ADME
- test-context: MDCK-MDR1
readout-name: MDR1 ER

Worked cases, answers included:
CC(C)OC(=O)N1Cc2cc(Cl)ccc2-n2c(nnc2C2CC3(C2)CN(C(=O)C2CC2)C3)C1 [compound 153]	+
CC(C)OC(=O)N1Cc2cc(Cl)ccc2-n2c(C3CC4(C3)CN(c3ncccn3)C4)nnc2C1C (stereo not drawn) [compound 167]	+++
CC(C)OC(=O)N1Cc2cc(Cl)ccc2-n2c(C3CC4(C3)CN(c3ccc(F)cn3)C4)nnc2C1C (stereo not drawn) [compound 163]	+++
CCC(=O)N1Cc2cc(Cl)ccc2-n2c(nnc2C2CC3(C2)CN(c2cccc(C#N)n2)C3)C1 [compound 125]	+
CC(C)C(=O)N1Cc2cc(Cl)ccc2-n2c(nnc2C2CC3(C2)CN(c2ccccn2)C3)C1 [compound 71]	+
COC(=O)N1Cc2cc(Cl)ccc2-n2c(C3CC4(C3)CN(c3ccc(F)cn3)C4)nnc2C1C (stereo not drawn) [compound 142]	++
CCOC(=O)N1Cc2cc(Cl)ccc2-n2c(C3CC4(C3)CN(c3ncc(F)cn3)C4)nnc2C1C (stereo not drawn) [compound 172]	++
O=C(C1CCC1)N1Cc2cc(Cl)ccc2-n2c(nnc2C2CC3(C2)CN(c2ccc(F)cn2)C3)C1 [compound 114]	+

Need MDR1 ER for each of these compounds.
1. CC1c2nnc(C3CC4(C3)CN(c3ncccn3)C4)n2-c2ccc(Cl)cc2CN1C(=O)OC1CC1 (stereo not drawn) [compound 171]
2. CN1Cc2cc(Cl)ccc2-n2c(nnc2C2CC3(C2)CN(C(=O)C2(F)CC2)C3)C1 [compound 36]
3. O=C(C(F)F)N1Cc2cc(Cl)ccc2-n2c(nnc2C2CC3(C2)CN(c2ccc(F)cn2)C3)C1 [compound 116]
4. CCOC(=O)N1Cc2cc(Cl)ccc2-n2c(C3CC4(C3)CN(c3ncccn3)C4)nnc2C1C (stereo not drawn) [compound 168]
5. CC1c2nnc(C3CC4(C3)CN(c3ncc(F)cn3)C4)n2-c2ccc(Cl)cc2CN1C(=O)OC1CC1 (stereo not drawn) [compound 192]
6. COC(=O)N1Cc2cc(Cl)ccc2-n2c(nnc2C2CC3(C2)CN(c2ncc(F)cn2)C3)C1 [compound 92]

+
+
+
+
+++
+

Given CC(=O)N1Cc2cc(Cl)ccc2-n2c(nnc2C2CC3(C2)CN(c2cccc(C#N)n2)C3)C1 [compound 94] , respond with its MDR1 ER.
+
